Origin of the recorded values: patent US20260209214A1

Measurement Target: Recombinant human LSD1 (Homo sapiens, UniProt O60341)
Protocol: LSD1 inhibition assay (HTRF LSD1 Histone H3K4 mono-demethylation assay, me1->me0)
Format: biochemical
Condition Context: 20 nM recombinant human LSD1, 95 nM H3K4(me1) biotinylated peptide, 15 min preincubation, 60 min at 25° C., read-out: LSD1 inhibition IC50 (nM range)
Property Name: IC50

Study these solved cases before continuing.
- Compound: "C[C@]1(N)CCN(Cc2c(F)ccc(-c3ccc(C#N)c(F)c3)c2Cl)C1"
  IC50: "100 to 1000 nM"
- Compound: "N#Cc1ccc(-c2cccc(CN3C[C@H]4C[C@@H]3CCN4)c2C2CC2)cc1F"
  IC50: "25 to 100 nM"
- Compound: "CC(C)(O)Cc1ccc(-c2ccc(CC3CNCCO3)cc2-c2ccc(C#N)c(F)c2)c(F)c1 (centres unmarked)"
  IC50: "25 to 100 nM"
- Compound: "N#Cc1ccc(-c2cccc(CC3CCOCC3)c2-c2ccns2)cc1F"
  IC50: "25 to 100 nM"
- Compound: "N#Cc1ccc(-c2cccc(CN3[C@@H]4CC[C@H]3[C@@H](N)C4)c2C2=CCOCC2)cc1F (racemic)"
  IC50: "25 to 100 nM"

Provide IC50 values for the following items, in order.
1. N#Cc1ccc(-c2cccc(CC3CNCCO3)c2-c2cocn2)cc1F (centres unmarked)
2. N#Cc1ccc(-c2cc(CC3CNCCO3)ccc2N[C@H]2CCCOC2)cc1F (some centres unmarked)

["100 to 1000 nM", "> 1000 nM"]

The reported IC50 value, Recombinant human LSD1 (Homo sapiens, UniProt O60341), for N#Cc1ccc(-c2cccc(CN3CCNCC(F)(F)C3)c2Cl)cc1F reads > 1000 nM

----------
Task for the reader: assign each of the following molecules its reported IC50.
Measurement Target: Recombinant human LSD1 (Homo sapiens, UniProt O60341)
Protocol: LSD1 inhibition assay (HTRF LSD1 Histone H3K4 mono-demethylation assay, me1->me0)
Type: biochemical
Condition Context: 20 nM recombinant human LSD1, 95 nM H3K4(me1) biotinylated peptide, 15 min preincubation, 60 min at 25° C., read-out: LSD1 inhibition IC50 (nM range)

- Molecule: "C[C@@]1(O)C[C@H]2CN(c3ccc(CC4CNCCO4)cc3-c3ccc(C#N)c(F)c3)C[C@H]2C1 (mixture of isomers)"
  IC50: "100 to 1000 nM"
- Molecule: "N#Cc1ccc(-c2cc(CC3CNCCO3)ccc2N2CCC(C3CCOC3)CC2)cc1F (stereo not drawn)"
  IC50: "25 to 100 nM"

Provide IC50 values for the following items, in order.
1. CNC1CCN(c2cccc(-c3ccc(C#N)c(F)c3)c2-c2cncs2)CC1
2. N#Cc1ccc(-c2cc(CN3[C@@H]4CC[C@H]3[C@@H](N)C4)ccc2-c2ccc(F)cn2)cc1F (racemic)
3. CN[C@H]1C[C@H]2CC[C@@H]1N2Cc1cccc(-c2ccc(C#N)c(F)c2)c1C1CC1 (racemic)
4. CN[C@@H]1CCN(Cc2cccc(-c3ccc(C#N)c(F)c3)c2C2CC2)C1

["10 to 25 nM", "25 to 100 nM", "10 to 25 nM", "100 to 1000 nM"]

----------
Task for the reader: assign each of the following compounds its reported IC50.
Measurement Target: Recombinant human LSD1 (Homo sapiens, UniProt O60341)
Protocol: LSD1 inhibition assay (HTRF LSD1 Histone H3K4 mono-demethylation assay, me1->me0)
Assay type: biochemical
Condition Context: 20 nM recombinant human LSD1, 95 nM H3K4(me1) biotinylated peptide, 15 min preincubation, 60 min at 25° C., read-out: LSD1 inhibition IC50 (nM range)

- Compound: "N#Cc1ccc(-c2cc(CN3[C@@H]4CC[C@H]3[C@@H](N)C4)ccc2N2CCC(CF)CC2)cc1F (racemic)"
  Measurement Target: "Recombinant human LSD1 (Homo sapiens, UniProt O60341)"
  IC50: "10 to 25 nM"
- Compound: "CC(C)C1(O)CN(c2ccc(CC3CNCCO3)cc2-c2ccc(C#N)c(F)c2)C1 (stereo not shown)"
  Measurement Target: "Recombinant human LSD1 (Homo sapiens, UniProt O60341)"
  IC50: "100 to 1000 nM"
- Compound: "N#Cc1ccc(-c2cc(CC3CNCCO3)ccc2N2CCn3nc(C4CC4)cc3C2)cc1F (stereo not shown)"
  Measurement Target: "Recombinant human LSD1 (Homo sapiens, UniProt O60341)"
  IC50: "> 1000 nM"

# next compound below
N#Cc1ccc(-c2cc(CN3[C@@H]4CC[C@H]3[C@@H](N)C4)ccc2C2CC2)cc1F (racemic) has a reported IC50 of 10 to 25 nM

----------
Task for the reader: assign each of the following compounds its reported IC50.
Measurement Target: Recombinant human LSD1 (Homo sapiens)
Protocol: LSD1 inhibition assay (HTRF LSD1 Histone H3K4 mono-demethylation assay, me1->me0)
Type: biochemical
Condition Context: 20 nM recombinant human LSD1, 95 nM H3K4(me1) biotinylated peptide, 15 min preincubation, 60 min at 25° C., read-out: LSD1 inhibition IC50 (nM range)

- Compound: "N#Cc1ccc(-c2cccc(CC3CNCCO3)c2N2CCC2)cc1F (centres unmarked) [Example 21]"
  Measurement Target: "Recombinant human LSD1 (Homo sapiens)"
  IC50: "100 to 1000 nM"
- Compound: "CC1(O)CCN(c2ccc(CC3CNCCO3)c(F)c2-c2ccc(C#N)c(F)c2)CC1 (centres unmarked) [Example 155]"
  Measurement Target: "Recombinant human LSD1 (Homo sapiens)"
  IC50: "100 to 1000 nM"
- Compound: "COCCc1ccc(-c2ccc(CC3CNCCO3)cc2-c2ccc(C#N)c(F)c2)c(F)c1 (centres unmarked) [Example 83]"
  Measurement Target: "Recombinant human LSD1 (Homo sapiens)"
  IC50: "25 to 100 nM"
- Compound: "N#Cc1ccc(-c2cc(CC3CNCCO3)ccc2N2CCC3(CCCO3)CC2)cc1F (centres unmarked) [Example 78]"
  Measurement Target: "Recombinant human LSD1 (Homo sapiens)"
  IC50: "100 to 1000 nM"

# next compound below
Cc1ncsc1-c1c(CC2CNCCO2)cccc1-c1ccc(C#N)cc1 (centres unmarked) [Example 38] has a reported IC50 of 10 to 25 nM

----------
Measurement Target: Recombinant human LSD1 (Homo sapiens)
Protocol: LSD1 inhibition assay (HTRF LSD1 Histone H3K4 mono-demethylation assay, me1->me0)
Format: biochemical
Condition Context: 20 nM recombinant human LSD1, 95 nM H3K4(me1) biotinylated peptide, 15 min preincubation, 60 min at 25° C., read-out: LSD1 inhibition IC50 (nM range)
Task for the reader: assign each of the following compounds its reported IC50.

Study these solved cases before continuing.
- Compound: "N#Cc1ccc(-c2cccc(CC3CNCCO3)c2-c2ccno2)cc1 (centres unmarked)"
  IC50: "10 to 25 nM"
- Compound: "N#Cc1ccc(-c2cccc(CN3C[C@H]4C[C@@H](N)C[C@@H]3C4)c2C2CC2)cc1F (stereo in doubt)"
  IC50: "25 to 100 nM"
- Compound: "CC1CCN(c2ccc(CN3[C@@H]4CC[C@H]3[C@@H](N)C4)cc2-c2ccc(C#N)c(F)c2)CC1 (racemic)"
  IC50: "10 to 25 nM"
- Compound: "COCC1CCN(c2ccc(CC3CNCCO3)cc2-c2ccc(C#N)c(F)c2)CC1 (centres unmarked)"
  IC50: "25 to 100 nM"
- Compound: "N#Cc1ccc(-c2cccc(CN3[C@@H]4CC[C@H]3[C@@H](N)C4)c2C2CCC2)cc1F (racemic)"
  IC50: "10 to 25 nM"
- Compound: "COCC1CN(c2ccc(CC3CNCCO3)cc2-c2ccc(C#N)c(F)c2)C1 (centres unmarked)"
  IC50: "100 to 1000 nM"

Provide IC50 values for the following items, in order.
1. N#Cc1ccc(-c2cccc(CC3CNCCO3)c2-c2ccno2)cc1F (centres unmarked)
2. N#Cc1ccc(-c2cccc(C[C@H]3CNCCO3)c2-c2ccns2)cc1F

10 to 25 nM
< 10 nM

----------
Measurement Target: Recombinant human LSD1 (Homo sapiens)
Protocol: LSD1 inhibition assay (HTRF LSD1 Histone H3K4 mono-demethylation assay, me1->me0)
Format: biochemical
Condition Context: 20 nM recombinant human LSD1, 95 nM H3K4(me1) biotinylated peptide, 15 min preincubation, 60 min at 25° C., read-out: LSD1 inhibition IC50 (nM range)
Property Name: IC50

- Compound: "CNC1CCN(Cc2cccc(-c3ccc(C#N)c(F)c3)c2-c2cnco2)C1 (stereo not drawn) [Example 336]"
  IC50: "10 to 25 nM"
- Compound: "COc1ccc(-c2ccc(CC3CNCCO3)cc2-c2ccc(C#N)c(F)c2)nc1 (stereo not drawn) [Example 133]"
  IC50: "100 to 1000 nM"
- Compound: "Cc1cc(CN2C[C@@H]3C[C@H]2CN3)c(Cl)c(-c2ccc(C#N)c(F)c2)c1 [Example 299]"
  IC50: "25 to 100 nM"
- Compound: "CC(c1ccc(N2CCC2)c(-c2ccc(C#N)c(F)c2)c1)C1CNCCO1 (stereo not drawn) [Example 76]"
  IC50: "100 to 1000 nM"
- Compound: "N#Cc1ccc(-c2cccc(CN3CC4CCC3CN4)c2Cl)cc1F (stereo not drawn) [Example 283]"
  IC50: "100 to 1000 nM"

Provide IC50 values for the following items, in order.
1. CN1CCC12CCN(Cc1c(F)ccc(-c3ccc(C#N)c(F)c3)c1F)C2 (stereo not drawn) [Example 290]
2. Cc1cc(CNCC2(C)CCN(C)C2)c(Cl)c(-c2ccc(C#N)c(F)c2)c1 (stereo not drawn) [Example 298]
3. N#Cc1ccc(-c2cccc(CN3C[C@@]4(N)CC[C@@H]3C4)c2C2CC2)cc1F [Example 225]
4. COc1c(CN2[C@@H]3CC[C@H]2[C@@H](N)C3)cccc1-c1ccc(C#N)c(F)c1 (racemic) [Example 180]
5. CC(C)(C)N1CCN(c2ccc(CC3CNCCO3)cc2-c2ccc(C#N)c(F)c2)CC1 (stereo not drawn) [Example 149]
6. C[C@@H]1[C@@H](N)CCCN1Cc1cccc(-c2ccc(C#N)c(F)c2)c1Cl [Example 329]
7. CC1(c2c(CN3[C@@H]4CC[C@H]3[C@@H](N)C4)cccc2-c2ccc(C#N)c(F)c2)CC1 (racemic) [Example 307]
8. Cc1cc(CNCC2CCN(C)C2)c(Cl)c(-c2ccc(C#N)c(F)c2)c1 (stereo not drawn) [Example 226]

1. > 1000 nM
2. 100 to 1000 nM
3. 100 to 1000 nM
4. 25 to 100 nM
5. 100 to 1000 nM
6. > 1000 nM
7. 100 to 1000 nM
8. 100 to 1000 nM
